- Tested on: isolated guinea-pig atrial
- ASSAY_SUMMARY: Stimulated isolated guinea pig atrial (technique of Dawes)
- Assay type: cell-based
- CONDITION_DETAILS: concentration 10^-6
Some molecules, each annotated with its measured % DECREASE m.f.s. (maximum frequency followed by the atrial).
Write the answer as a number in %, unit excluded.

Before answering, review these 3 worked examples.
[[record]]
molecule = "O=C(OCCN1CCCCCC1)C(c1ccsc1)C1CCCCC1 (stereo not shown)"
measured_result = 14

[[record]]
molecule = "CC(C)N(CCC(C(N)=O)(c1ccccc1)c1ccccn1)C(C)C (stereo not shown) [DISOPYRAMIDE]"
measured_result = 6

[[record]]
molecule = "CC(C)NCC(O)COc1cccc2ccccc12 (stereo not shown)"
measured_result = 34


With those in mind, consider the next molecule.
Data request: Param readout = % DECREASE m.f.s. (maximum frequency followed by the atrial); param system = isolated guinea-pig atrial; param query = C=C[C@H]1C[N@@]2CC[C@H]1C[C@@H]2[C@@H](O)c1ccnc2ccc(OC)cc12 ; response: value
Data returned: 10

====

- Test system: ventricular fibrillation induced by CaCl2
- ASSAY_SUMMARY: Calcium (CaCl2) induced ventricular fibrillation in the anaesthetized rat, Malinow's technique
- Type: in vivo
- CONDITION_DETAILS: Rattus norvegicus, iv, read-out: AD50 protection against death
- Protocol: According to MALINOW, M. R., et coll. Acta. Physiol Latino. Americ. Using the anaesthetized rat, 200 mg/kg of CaCl2 was injected two minutes after the substances to be tested. The ECG was recorded continuously in lead II.
OBSERVATION_TYPE: ED50 (mg/kg)
Write the answer as a number in mg/kg, unit excluded.

Before answering, review these 2 worked examples.
[[record]]
compound = "CCN(CC)CCNC(=O)c1ccc(N)cc1 [Procainamide]"
measured_result = 17

[[record]]
compound = "C=C[C@H]1C[N@@]2CC[C@H]1C[C@@H]2[C@@H](O)c1ccnc2ccc(OC)cc12 [Quinidine]"
measured_result = 8


With those in mind, consider the next compound.
Data request: Which measured ED50 value corresponds to CC(C)NCC(O)COc1cccc2ccccc12 (stereo not shown) [Propranolol] ?
Data returned: 3.9

====

- ASSAY_SUMMARY: in vivo
- CONDITION_DETAILS: mouse, iv
OBSERVATION_TYPE: LD50 (mg/kg)
Write the answer as a number in mg/kg, unit excluded.

Before answering, review these 2 worked examples.
[[record]]
molecule = "C=C[C@H]1C[N@@]2CC[C@H]1C[C@@H]2[C@@H](O)c1ccnc2ccc(OC)cc12 [Quinidine]"
measured_result = 67

[[record]]
molecule = "O=C(OCCN1CCCCCC1)C(c1ccsc1)C1CCCCC1 (stereo not shown)"
measured_result = 57


Data request: Which measured LD50 value corresponds to CC[C@H]1[C@@H]2C[C@H]3[C@@H]4N(C)c5ccccc5[C@]45C[C@@H]([C@H]2[C@H]5O)N3[C@@H]1O [Ajmaline] ?
Data returned: 26

Data request: And the next one, CCN(CC)CCNC(=O)c1ccc(N)cc1 [Procainamide] ?
Data returned: 105
